All figures here come from patent US20230310428A1.

- TARGET OF ASSAY: various mutants of kinase EGFR (BaF3 cell lines stably transfected with kinase) (Homo sapiens, UniProt P00533, L858R/T790M)
- Construct: expressed in transfected cells; host or cells: BaF3
- Sequence (P00533 25-1210 T790M/L858R): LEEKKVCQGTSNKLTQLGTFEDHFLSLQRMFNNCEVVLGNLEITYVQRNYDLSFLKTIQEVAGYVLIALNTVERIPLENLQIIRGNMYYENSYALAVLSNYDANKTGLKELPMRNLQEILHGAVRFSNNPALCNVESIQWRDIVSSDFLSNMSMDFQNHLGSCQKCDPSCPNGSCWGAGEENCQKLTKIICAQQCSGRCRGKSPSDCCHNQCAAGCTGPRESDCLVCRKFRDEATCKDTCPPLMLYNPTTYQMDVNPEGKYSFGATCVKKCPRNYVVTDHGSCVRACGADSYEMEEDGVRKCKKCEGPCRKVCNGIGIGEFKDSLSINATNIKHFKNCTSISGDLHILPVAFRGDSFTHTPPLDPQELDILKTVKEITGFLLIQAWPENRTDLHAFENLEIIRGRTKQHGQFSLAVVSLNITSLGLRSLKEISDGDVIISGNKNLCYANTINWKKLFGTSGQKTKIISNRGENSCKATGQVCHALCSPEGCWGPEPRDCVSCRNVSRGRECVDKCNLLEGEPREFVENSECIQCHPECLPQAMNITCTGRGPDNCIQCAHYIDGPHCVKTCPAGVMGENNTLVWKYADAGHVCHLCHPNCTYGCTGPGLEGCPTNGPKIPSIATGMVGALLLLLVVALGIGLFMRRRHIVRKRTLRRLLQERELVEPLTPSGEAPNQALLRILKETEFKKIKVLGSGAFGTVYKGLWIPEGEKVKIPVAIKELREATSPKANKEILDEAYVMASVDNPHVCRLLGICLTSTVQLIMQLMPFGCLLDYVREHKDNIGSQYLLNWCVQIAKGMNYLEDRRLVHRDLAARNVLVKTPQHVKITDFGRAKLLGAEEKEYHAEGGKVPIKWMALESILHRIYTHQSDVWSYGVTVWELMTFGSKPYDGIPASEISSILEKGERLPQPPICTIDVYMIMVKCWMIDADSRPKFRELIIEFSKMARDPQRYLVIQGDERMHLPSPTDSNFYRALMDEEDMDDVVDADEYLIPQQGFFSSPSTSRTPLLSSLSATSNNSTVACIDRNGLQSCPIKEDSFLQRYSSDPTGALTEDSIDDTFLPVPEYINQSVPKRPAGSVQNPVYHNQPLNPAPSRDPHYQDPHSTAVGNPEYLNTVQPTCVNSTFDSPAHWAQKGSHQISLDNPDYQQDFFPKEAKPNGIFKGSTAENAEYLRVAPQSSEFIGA
- ASSAY EXPLANATION: Growth inhibitory activity of compounds on BaF3 cell lines stably transfected with kinase (MTS, 48 h)
- Type: cell-based
- MEASUREMENT CONTEXT: BaF3 cells stably transfected with EGFR L858R/T790M, read-out: IC50, growth inhibition, L858R/T790M
PROPERTY MEASURED: IC50

As a guide, the following entries are already answered.
COc1cc(N2CCC(N3CCN(C)CC3)CC2)c(CC2CC2)cc1Nc1ncc(Br)c(Nc2ccc3nccnc3c2N(C)S(C)(=O)=O)n1 ... ≤ 50 nM
CCOc1cc(N2CCN(C)CC2)ccc1Nc1ncc(Br)c(Nc2ccc3nccnc3c2N(C)S(C)(=O)=O)n1 ... 50 to 500 nM
CCc1cc(Nc2ncc(Cl)c(Nc3ccc4nccnc4c3N(C)S(C)(=O)=O)n2)c(OC(F)(F)F)cc1N1CCC(N2CCN(C)CC2)CC1 ... 50 to 500 nM
COc1cc(N2CCC(N3CCN(C)CC3)CC2)ccc1Nc1ncc(Br)c(Nc2ccc3nccnc3c2N(C)S(=O)(=O)C2CC2)n1 ... ≤ 50 nM

I would be grateful if you could share the reported IC50 for CCc1cc(Nc2ncc(Br)c(Nc3ccc4nccnc4c3N(C)S(C)(=O)=O)n2)c(OC)cc1N1CCN(C)CC1 . ≤ 50 nM

I would be grateful if you could share the reported IC50 for COc1cc(N2CCC(N3CCN(C)CC3)CC2)c(CC2CC2)cc1Nc1ncc(C(F)(F)F)c(Nc2ccc3nccnc3c2N(C)S(C)(=O)=O)n1 . ≤ 50 nM
